Listed compounds paired with reported pIC50
target-desc: Epidermal growth factor receptor (Homo sapiens)
protocol-description: biochemical
Description: Inhibitory potency against isolated epidermal growth factor receptor (EGFR) from human A431 carcinoma cells
The read-out pIC50 is expressed as -log10 of concentration in moles per litre.

// below: answered compounds
>  <compound>
Brc1cccc(Nc2ncnc3cnccc23)c1

>  <pIC50>
7.29

$$$$
>  <compound>
c1ccc2ncncc2c1

>  <pIC50>
7.57

$$$$
>  <compound>
CN(C)c1ccc2cncnc2c1

>  <pIC50>
7.96

$$$$

Now, please, on to the next compound.
**Q:** Can you look up the measured pIC50 of `CNc1cc2c(Nc3ccccc3)ncnc2cn1` for me?
**A:** 8.05

###

Listed compounds paired with reported pIC50
target-desc: Epidermal growth factor receptor (Homo sapiens, UniProt P00533)
Sequence (P00533 whole entry): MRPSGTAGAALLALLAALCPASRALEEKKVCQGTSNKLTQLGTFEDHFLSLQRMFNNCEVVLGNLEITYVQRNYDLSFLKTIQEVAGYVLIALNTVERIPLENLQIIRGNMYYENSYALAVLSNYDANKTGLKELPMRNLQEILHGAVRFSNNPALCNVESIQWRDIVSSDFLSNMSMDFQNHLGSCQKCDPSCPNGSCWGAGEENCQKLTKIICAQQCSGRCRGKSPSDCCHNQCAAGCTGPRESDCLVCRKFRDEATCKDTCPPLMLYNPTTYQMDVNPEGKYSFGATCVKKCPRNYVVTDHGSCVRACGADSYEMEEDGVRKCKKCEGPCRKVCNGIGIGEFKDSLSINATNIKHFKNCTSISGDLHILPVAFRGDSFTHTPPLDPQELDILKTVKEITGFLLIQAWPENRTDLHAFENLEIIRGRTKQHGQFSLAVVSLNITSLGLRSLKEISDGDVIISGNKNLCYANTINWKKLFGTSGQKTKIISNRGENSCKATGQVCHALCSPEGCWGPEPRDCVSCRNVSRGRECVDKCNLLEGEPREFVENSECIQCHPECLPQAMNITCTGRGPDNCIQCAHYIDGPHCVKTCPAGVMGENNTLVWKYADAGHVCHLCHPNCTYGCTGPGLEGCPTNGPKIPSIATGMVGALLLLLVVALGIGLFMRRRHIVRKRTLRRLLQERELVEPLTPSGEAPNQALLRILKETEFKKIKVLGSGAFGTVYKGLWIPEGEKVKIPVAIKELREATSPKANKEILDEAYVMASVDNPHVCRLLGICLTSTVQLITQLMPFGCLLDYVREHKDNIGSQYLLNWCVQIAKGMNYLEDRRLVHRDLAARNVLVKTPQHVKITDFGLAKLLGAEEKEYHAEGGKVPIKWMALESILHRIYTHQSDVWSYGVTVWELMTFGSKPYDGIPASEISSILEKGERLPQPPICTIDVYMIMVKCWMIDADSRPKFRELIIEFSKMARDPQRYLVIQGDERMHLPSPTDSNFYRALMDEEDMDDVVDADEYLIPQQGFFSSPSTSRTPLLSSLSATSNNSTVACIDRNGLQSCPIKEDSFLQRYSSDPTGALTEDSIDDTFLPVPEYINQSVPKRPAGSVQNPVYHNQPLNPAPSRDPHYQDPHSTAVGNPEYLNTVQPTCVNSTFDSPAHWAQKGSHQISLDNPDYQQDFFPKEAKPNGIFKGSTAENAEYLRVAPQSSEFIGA
protocol-description: Inhibition of Epidermal growth factor receptor autophosphorylation in A431 human epidermoid carcinoma cells
The read-out pIC50 is expressed as -log10 of concentration in moles per litre.

**Q:** Please tell me: pIC50 of `CN(C)c1cc2ncnc(Nc3cccc(Br)c3)c2cn1` , system Epidermal growth factor receptor (Homo sapiens, UniProt P00533)?
**A:** 7.85

**Q:** Do the same for `CNc1cc2c(Nc3cccc(Br)c3)ncnc2cn1` please
**A:** 7.82

**Q:** Do the same for `CN(C)c1ccc2c(Nc3cccc(Br)c3)ncnc2n1` please
**A:** 5.64

**Q:** Do the same for `CNc1cc2ncnc(Nc3cccc(Br)c3)c2cn1` please
**A:** 7.80

**Q:** Do the same for `Nc1cc2ncnc(NCc3ccccc3)c2cn1` please
**A:** 5.68

**Q:** Do the same for `Nc1cc2c(Nc3cccc(Br)c3)ncnc2cn1` please
**A:** 7.80

###

target-desc: Epidermal growth factor receptor (Homo sapiens, UniProt P00533)
protocol-description: biochemical
pIC50: −log10 of the molar value.
Assign class by pIC50: not lower than 8 means Criterion met; lower than 8 means Criterion not met.

Some solved cases for reference:
>  <compound>
c1ccc(CNc2ncnc3ncccc23)cc1

>  <target-desc>
Epidermal growth factor receptor (Homo sapiens, UniProt P00533)

>  <category-label>
Criterion not met

$$$$
>  <compound>
CNC1=CC2N=CN(C)/C(=N\c3cccc(Br)c3)C2C=N1 (configuration not stated)

>  <target-desc>
Epidermal growth factor receptor (Homo sapiens, UniProt P00533)

>  <category-label>
Criterion met

$$$$
>  <compound>
Fc1ccc2ncnc(Nc3cccc(Br)c3)c2n1

>  <target-desc>
Epidermal growth factor receptor (Homo sapiens, UniProt P00533)

>  <category-label>
Criterion not met

$$$$
>  <compound>
CN(C)c1ccc2ncncc2c1

>  <target-desc>
Epidermal growth factor receptor (Homo sapiens, UniProt P00533)

>  <category-label>
Criterion not met

$$$$
>  <compound>
c1ccc(CNc2ncnc3cnccc23)cc1

>  <target-desc>
Epidermal growth factor receptor (Homo sapiens, UniProt P00533)

>  <category-label>
Criterion not met

$$$$

**Q:** Answer whether pIC50 of `Clc1ccc2ncnc(Nc3cccc(Br)c3)c2n1` is greater than or equal to 8.
**A:** Criterion not met

**Q:** Do the same for `Nc1cc2c(Nc3cccc(Br)c3)ncnc2cn1` please
**A:** Criterion met

**Q:** Do the same for `c1ccc(CNc2ncnc3ccncc23)cc1` please
**A:** Criterion not met

**Q:** Do the same for `Brc1cccc(Nc2ncnc3cccnc23)c1` please
**A:** Criterion not met

**Q:** Do the same for `Brc1cccc(Nc2ncnc3ncccc23)c1` please
**A:** Criterion not met

**Q:** Do the same for `COc1ccc(CNc2cc3c(Nc4cccc(Br)c4)ncnc3cn2)cc1` please
**A:** Criterion met

**Q:** Do the same for `COc1ccc2ncnc(Nc3cccc(Br)c3)c2n1` please
**A:** Criterion met

**Q:** Do the same for `CN(C)c1ccc2c(Nc3cccc(Br)c3)ncnc2n1` please
**A:** Criterion not met

**Q:** Do the same for `Fc1ccc2c(Nc3cccc(Br)c3)ncnc2n1` please
**A:** Criterion not met

**Q:** Do the same for `Nc1ccc2ncncc2c1` please
**A:** Criterion met

**Q:** Do the same for `Nc1ccc2cncnc2c1` please
**A:** Criterion met

**Q:** Do the same for `c1ccc(CNc2ncnc3cccnc23)cc1` please
**A:** Criterion not met

**Q:** Do the same for `CNc1ccc2cncnc2c1` please
**A:** Criterion met

**Q:** Do the same for `COc1ccc2ncncc2c1` please
**A:** Criterion not met

**Q:** Do the same for `Brc1cccc(Nc2ncnc3ccncc23)c1` please
**A:** Criterion not met
